# target of assay: IKZF2 (Homo sapiens, UniProt Q96SW2+Q9UKS7)
# Construct: expressed in transfected cells
# Sequence (Q9UKS7 1-500 isoform Q9UKS7-2): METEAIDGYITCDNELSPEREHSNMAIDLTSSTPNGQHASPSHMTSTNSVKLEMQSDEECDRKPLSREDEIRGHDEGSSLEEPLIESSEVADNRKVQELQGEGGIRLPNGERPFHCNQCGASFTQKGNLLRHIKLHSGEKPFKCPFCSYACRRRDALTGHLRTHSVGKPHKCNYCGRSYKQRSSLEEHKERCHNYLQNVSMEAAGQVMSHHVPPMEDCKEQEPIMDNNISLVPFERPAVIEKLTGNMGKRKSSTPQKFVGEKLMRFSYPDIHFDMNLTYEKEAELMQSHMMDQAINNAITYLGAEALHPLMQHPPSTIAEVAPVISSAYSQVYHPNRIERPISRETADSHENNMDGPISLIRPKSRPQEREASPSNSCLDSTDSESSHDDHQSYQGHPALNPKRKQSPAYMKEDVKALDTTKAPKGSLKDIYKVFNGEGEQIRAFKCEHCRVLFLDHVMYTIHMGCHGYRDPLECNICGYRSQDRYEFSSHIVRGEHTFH
# Sequence (Q96SW2 whole entry): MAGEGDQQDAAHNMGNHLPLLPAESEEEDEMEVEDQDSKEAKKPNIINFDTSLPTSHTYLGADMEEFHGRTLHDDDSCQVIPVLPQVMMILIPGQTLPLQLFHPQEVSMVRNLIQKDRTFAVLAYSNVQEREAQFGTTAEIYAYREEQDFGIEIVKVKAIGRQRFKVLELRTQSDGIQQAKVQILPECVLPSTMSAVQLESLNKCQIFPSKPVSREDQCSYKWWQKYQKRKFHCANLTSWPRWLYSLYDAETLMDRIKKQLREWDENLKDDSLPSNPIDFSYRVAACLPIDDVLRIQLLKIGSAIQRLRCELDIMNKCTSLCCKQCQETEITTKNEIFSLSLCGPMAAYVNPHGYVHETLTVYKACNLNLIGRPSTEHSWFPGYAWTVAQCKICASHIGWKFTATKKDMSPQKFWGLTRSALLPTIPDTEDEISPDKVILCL
# Sequence (Q16531 whole entry partner): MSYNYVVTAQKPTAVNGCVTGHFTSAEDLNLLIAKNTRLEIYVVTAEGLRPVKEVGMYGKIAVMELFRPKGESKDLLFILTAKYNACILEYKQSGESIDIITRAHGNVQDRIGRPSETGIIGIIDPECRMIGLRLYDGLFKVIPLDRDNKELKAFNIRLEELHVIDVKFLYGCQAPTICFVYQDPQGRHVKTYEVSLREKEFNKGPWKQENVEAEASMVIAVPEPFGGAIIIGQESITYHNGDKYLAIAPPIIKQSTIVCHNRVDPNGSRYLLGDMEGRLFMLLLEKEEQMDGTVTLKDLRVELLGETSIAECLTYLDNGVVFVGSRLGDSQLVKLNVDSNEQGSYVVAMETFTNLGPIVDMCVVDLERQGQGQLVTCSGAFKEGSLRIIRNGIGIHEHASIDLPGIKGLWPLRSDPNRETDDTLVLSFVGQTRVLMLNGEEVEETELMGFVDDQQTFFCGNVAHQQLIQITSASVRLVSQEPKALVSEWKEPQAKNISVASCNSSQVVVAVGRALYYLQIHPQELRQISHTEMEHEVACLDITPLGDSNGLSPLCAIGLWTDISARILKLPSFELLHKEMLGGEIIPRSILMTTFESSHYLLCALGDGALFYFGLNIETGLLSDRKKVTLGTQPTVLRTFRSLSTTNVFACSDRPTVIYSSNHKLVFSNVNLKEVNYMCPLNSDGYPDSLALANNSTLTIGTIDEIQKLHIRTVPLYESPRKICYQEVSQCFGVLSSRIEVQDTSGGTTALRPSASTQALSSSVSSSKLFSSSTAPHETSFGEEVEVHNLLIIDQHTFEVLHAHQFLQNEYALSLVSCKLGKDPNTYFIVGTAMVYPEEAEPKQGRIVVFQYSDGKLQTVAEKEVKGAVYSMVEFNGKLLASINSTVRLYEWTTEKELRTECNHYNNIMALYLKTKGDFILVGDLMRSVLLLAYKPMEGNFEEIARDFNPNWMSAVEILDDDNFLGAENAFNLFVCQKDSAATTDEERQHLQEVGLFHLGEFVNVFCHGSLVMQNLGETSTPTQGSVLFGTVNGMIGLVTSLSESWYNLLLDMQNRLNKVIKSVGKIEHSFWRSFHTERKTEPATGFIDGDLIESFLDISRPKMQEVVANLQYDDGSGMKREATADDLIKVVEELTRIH
# assay method text: HiBiT protein tagging assay, in vitro IKZF2 degradation (HEK293)
# Format: cell-based
# test context: HiBiT assay, HEK293, 18-24 hr incubation, normalized to DMSO control; read-out: IKZF2 EC50
# strict inequality: DC50 < 300 nM yields true, everything else yields false

Please review the entries below; each comes with its answer.
>  <compound>
O=C1CCC(N2Cc3cc(CN[C@@H]4CCC[C@H](Nc5ccccc5)C4)ccc3C2=O)C(=O)N1 (stereo partly shown)

>  <target of assay>
IKZF2 (Homo sapiens, UniProt Q96SW2+Q9UKS7)

>  <group>
true

$$$$
>  <compound>
O=C1CCC(N2Cc3cc(CN[C@@H]4CCC[C@H]([C@@H](O)c5ccccc5)C4)ccc3C2=O)C(=O)N1 (stereo partly shown)

>  <target of assay>
IKZF2 (Homo sapiens, UniProt Q96SW2+Q9UKS7)

>  <group>
true

$$$$

Input line: I wonder whether O=C1CCC(N2Cc3cc(CNC4(C5CC5)CCCCC4)ccc3C2=O)C(=O)N1 (stereo not shown) has DC50 below 300 nM. Can you tell?
Output line: false

Input line: Consider the compound C[C@@H]1[C@H](NCc2ccc3c(c2)CN(C2CCC(=O)NC2=O)C3=O)CCCN1Cc1ccccc1 (stereo partly shown) . Is its DC50 strictly less than 300 nM?
Output line: false

Input line: Lab note: DC50 threshold 300 nM. Does this compound come in strictly under it? O=C1CCC(N2Cc3cc(CN[C@H]4CC5CCC4CC5)ccc3C2=O)C(=O)N1 (stereo partly shown)
Output line: false

Input line: Lab note: DC50 threshold 300 nM. Does this compound come in strictly under it? CO[C@H]1CCCC[C@H]1NCc1ccc2c(c1)CN(C1CCC(=O)NC1=O)C2=O (stereo partly shown)
Output line: true

Input line: Identify whether the compound O=C1CCC(N2Cc3cc(CNC4CCC5(CCCCC5)CC4)ccc3C2=O)C(=O)N1 (stereo not shown) records DC50 below 300 nM.
Output line: true

Input line: In plain terms, does O=C1CCC(N2Cc3cc(CN[C@H]4CCN(Cc5ccccc5)C4)ccc3C2=O)C(=O)N1 (stereo partly shown) come in under 300 nM for DC50?
Output line: false

Input line: Lab note: DC50 threshold 300 nM. Does this compound come in strictly under it? O=C1CCC(N2Cc3cc(CN[C@H]4CCC[C@@H](Cc5ccccc5)C4)ccc3C2=O)C(=O)N1 (relative stereo) [Example 12]
Output line: true

Input line: Decide: DC50 of O=C1CCC(N2Cc3cc(CNCC4CCCc5ccccc54)ccc3C2=O)C(=O)N1 (stereo not shown) strictly below 300 nM?
Output line: true

Input line: Say whether its DC50 is strictly beneath 300 nM. Entry: O=C1CCC(N2Cc3cc(CN[C@@H]4CCCC[C@H]4O)ccc3C2=O)C(=O)N1 (stereo partly shown)
Output line: false

Input line: Please determine if O=C1CCC(N2Cc3cc(CNCC4CCc5ccccc5C4)ccc3C2=O)C(=O)N1 (stereo not shown) is below 300 nM in terms of DC50.
Output line: true

Input line: # TODO verify DC50 < 300 nM strictly for this compound: O=C1CCC(N2Cc3cc(CNC4Cc5ccccc5N(Cc5ccccc5)C4)ccc3C2=O)C(=O)N1 (stereo not shown)
Output line: false

Input line: Is the reported DC50 for C[C@@H]1[C@H]2C[C@@H](C[C@H]1NCc1ccc3c(c1)CN(C1CCC(=O)NC1=O)C3=O)C2(C)C (stereo partly shown) strictly below 300 nM?
Output line: true

Input line: Field: below-cutoff. Rule: recorded DC50 strictly less than 300 nM. Subject: O=C1CCC(N2Cc3cc(CN[C@@H]4CCCC[C@@H]4CO)ccc3C2=O)C(=O)N1 (stereo partly shown)
Output line: false
